Metric: melting point

Examples from the recorded data:
[[record]]
compound = "O=C1N=CN(CC2CCCCC2)C12CCN(Cc1ccccc1)CC2"
test_result = "117 to 118 °C"

[[record]]
compound = "CCCc1nc2c(N)nc3cccnc3c2n1CC1(O)CCC1"
test_result = "226 to 227 °C"

[[record]]
compound = "CNc1c(F)c(C)c2c(=O)c(C(=O)O)cn(-c3cc(N)c(F)cc3F)c2c1C"
test_result = "247 to 253 °C"


Here's the next entry for you.
melting point lookup needed for Cc1nn2c(-c3cccc(NC(=O)OC(C)C)c3)ccnc2c1C(=O)c1cccs1 , thanks.
186 to 188 °C
